Test system: MCF7 breast
MEASUREMENT_NOTES: NCI tumour cell line growth inhibition, 48 h

COMPOUND: CCOC(=O)c1sc(=S)c2c(C(=O)OCC)c(C(=O)OCC)sc2c1C(=O)OCC
UNIT_ABBREVIATION: µM
QUALIFYING_SIGN: =
TGI: 29.9

COMPOUND: COc1cc(/C=C2\COc3ccc(O)c(O)c3C2=O)cc(OC)c1
UNIT_ABBREVIATION: µM
QUALIFYING_SIGN: =
TGI: 14.6

COMPOUND: CCOC(=O)c1c(-c2ccc(OC)cc2)c(C#N)c(=S)n(C2OC(CO)C(O)C(O)C2O)c1-c1ccccc1 (stereo not given)
UNIT_ABBREVIATION: µM
QUALIFYING_SIGN: >
TGI: 100

COMPOUND: O=C(O)CC/C(=N\Nc1nsc2ccccc12)c1ccc(Cl)cc1
UNIT_ABBREVIATION: µM
QUALIFYING_SIGN: >
TGI: 100

COMPOUND: O=[N+]([O-])c1cc(-[n+]2cc([O-])on2)ccc1F
UNIT_ABBREVIATION: µM
QUALIFYING_SIGN: =
TGI: 29.4

---

System: DLD-1 colon
MEASUREMENT_NOTES: NCI tumour cell line growth inhibition, 48 h
Quick reference for TGI among some compounds

COMPOUND: COC(=O)C1=C(CO)C2C=CC1C2 (stereo not drawn)
TGI: > 100 µM
--
COMPOUND: O=C(Nc1c(O)[nH]c(=S)[nH]c1=O)c1ccc2ccccc2n1
TGI: > 100 µM
--
COMPOUND: CC(C)(C)C(=O)C1CC(=O)c2ccccc2C1=O (stereo not drawn)
TGI: > 100 µM

---

System: CCRF-CEM leukemia
MEASUREMENT_NOTES: NCI tumour cell line growth inhibition, 48 h
Quick reference for TGI among some molecules

MOLECULE: CCCc1nc2c(C)cc(-c3nc4ccccc4n3C)cc2n1Cc1ccc(-c2ccccc2C(=O)O)cc1
QUALIFYING_SIGN: >
TGI (µM): 100
--
MOLECULE: CC1=C(C(=O)NCc2ccccc2)C(c2ccccc2[N+](=O)[O-])C(C(=O)NCc2ccccc2)=C(C)N1
QUALIFYING_SIGN: =
TGI (µM): 44.7
--
MOLECULE: CCOC(=O)C1=c2[nH]c3cccc4cccc(c43)n2C=C(C(C)=O)C1CC(C)=O (stereo not drawn)
QUALIFYING_SIGN: >
TGI (µM): 100
--
MOLECULE: Cc1cc(O)cc2c1O[C@@]1(C)CCC3[C@@]4(C)CC[C@H](O)C(C)(C)C4CC[C@@]3(C)[C@H]1C2 (stereo partly drawn)
QUALIFYING_SIGN: =
TGI (µM): 7.08
--
MOLECULE: CC1CCC2C(C(=O)O[C@H]3C4CCO[C@@H](OC5OC(CO)C(O)C(O)C5O)C4[C@@]4(CO)O[C@@H]34)=CO[C@@H](OC3OC(CO)C(O)C(O)C3O)C12 (stereo partly drawn)
QUALIFYING_SIGN: >
TGI (µM): 10
--
MOLECULE: O=C(O)CC/C(=N\Nc1nsc2ccccc12)c1ccc(Cl)cc1
QUALIFYING_SIGN: >
TGI (µM): 54.6
--
MOLECULE: CCOC(=O)c1sc(=S)c2c(C(=O)OCC)c(C(=O)OCC)sc2c1C(=O)OCC
QUALIFYING_SIGN: =
TGI (µM): 61.7
--
MOLECULE: CCn1cnc2c(Nc3cccc(Cl)c3)nc(N[C@@H]3CCCC[C@@H]3N)nc21
QUALIFYING_SIGN: =
TGI (µM): 9.66

---

Tested on: KM12 colon
MEASUREMENT_NOTES: NCI tumour cell line growth inhibition, 48 h
Quick reference for GI50 among some compounds
MEASURED_QUANTITY: GI50

COMPOUND: Cc1ccc(S(=O)(=O)N2CCc3ccc(O)c4c3C2Cc2cc(Cl)ccc2-4)cc1 (stereo unspecified)
VALUE: 1180 nM
//
COMPOUND: CC(=O)N=c1ccc2nc3c(cc(N)c4ccccc43)oc-2c1
VALUE: 1440 nM
//
COMPOUND: Cc1nc(NC(=O)CCCN2C(=O)c3cccc4cccc(c34)C2=O)sc1C(=O)Nc1cc(C(=O)NCCCN(C)C)n(C)c1
VALUE: > 100000 nM
//
COMPOUND: COc1cc(C(=O)c2cc3c(cc2C)OCO3)cc(OC)c1OC
VALUE: 70 nM
//
COMPOUND: CCC(=C/[C@H](C)C/C=C/C(C)=C/[C@@H](C)C(=O)[C@@H](C)[C@H](O)[C@@H](C)CC)/C=C/[C@H]1OC(=O)C=C[C@H]1C
VALUE: < 10 nM
//
COMPOUND: N.N.NCCCCN.O=C([O-])C1(C(=O)[O-])CCC1.O=C([O-])C1(C(=O)[O-])CCC1.[Pt+4].[Pt+4]
VALUE: > 100000 nM
//
COMPOUND: COc1cc(-n2cc(-c3ccc(Cl)cc3)[nH]c2=O)cc(OC)c1OC
VALUE: 41300 nM
//
COMPOUND: CCOC(=O)c1sc(=S)c2c(C(=O)OCC)c(C(=O)OCC)sc2c1C(=O)OCC
VALUE: 18400 nM
//
COMPOUND: COC(=O)CCC/C=C\C[C@H]1C=CC(=O)/C1=C/C[C@@H](O)C/C=C\CC(F)(F)F
VALUE: 1970 nM
//
COMPOUND: COC1=CC(c2ccc[nH]2)=N/C1=C\c1ccc[nH]1
VALUE: 69.8 nM
//
COMPOUND: C[C@@H]1C=C2C(=O)O[C@@H]3CC[C@H](C1)[C@]23O
VALUE: 21800 nM

---

System: EKVX NSCLC
MEASUREMENT_NOTES: NCI tumour cell line growth inhibition, 48 h
Quick reference for GI50 among some compounds

COMPOUND: CCOC(=O)c1c(C(F)(F)F)n([O-])c2ccc(OC)cc2[n+]1=O
GI50: 3.67 µM
--
COMPOUND: COc1ccc(NC(=O)c2sc3nc(C)c(C(O)c4ccccc4)cc3c2N)cc1 (centres undefined)
GI50: 4.38 µM
--
COMPOUND: COC(=O)C1=C(C(=O)OC)C23C=C(C)C1C2=C(C)C1(CC1)[C@@](C)(O)C3=O (some centres undefined)
GI50: 0.615 µM
--
COMPOUND: COc1cc(-n2cc(-c3ccc(Cl)cc3)[nH]c2=O)cc(OC)c1OC
GI50: 34.1 µM

---

System: UACC-257 melanoma
MEASUREMENT_NOTES: NCI tumour cell line growth inhibition, 48 h
Quick reference for TGI among some compounds
MEASURED_QUANTITY: TGI (µM)

COMPOUND: ClC1=C(Cc2ccccc2)Cc2ccc3c(c21)CCC3
UNIT_ABBREVIATION: µM
QUALIFYING_SIGN: =
VALUE: 53.8
--
COMPOUND: O=C(OCC1OC(c2nn[nH]n2)C(OC(=O)c2ccccc2)C1OC(=O)c1ccccc1)c1ccccc1 (stereo not given)
UNIT_ABBREVIATION: µM
QUALIFYING_SIGN: >
VALUE: 100
--
COMPOUND: c1ccc2c(c1)Nc1nc3nonc3nc1N2
UNIT_ABBREVIATION: µM
QUALIFYING_SIGN: >
VALUE: 100
--
COMPOUND: Cc1ccc(S(=O)(=O)N2CCc3ccc(O)c4c3C2Cc2cc(Cl)ccc2-4)cc1 (stereo not given)
UNIT_ABBREVIATION: µM
QUALIFYING_SIGN: =
VALUE: 7.08
--
COMPOUND: COC(=O)C1=C(C(=O)OC)C23C=C(C)C1C2=C(C)C1(CC1)[C@@](C)(O)C3=O (stereo not given in full)
UNIT_ABBREVIATION: µM
QUALIFYING_SIGN: =
VALUE: 3.82

---

Quick reference for TGI among some compounds
Tested on: UACC-62 melanoma
MEASUREMENT_NOTES: NCI tumour cell line growth inhibition, 48 h

COMPOUND: Nc1nc2nc[nH]c2c(=O)[nH]1
TGI: > 100 µM

COMPOUND: CSc1nc2sc3cc(Cl)ccc3n2c(=N)c1C#N
TGI: > 100 µM

COMPOUND: c1ccc2c(c1)Nc1nc3nonc3nc1N2
TGI: > 100 µM

COMPOUND: CCOC(=O)CCC(NC(=O)Cc1ccc(Oc2nc3ccccc3nc2-c2cccs2)cc1)C(=O)OCC (stereo unspecified)
TGI: > 100 µM

COMPOUND: CCCN(CCC)c1ccc(/C=N/NC(=O)c2cccnc2)c(Cl)c1
TGI: 4.6 µM

COMPOUND: OCC12C3C4C1C1C2C3C41CO (stereo unspecified)
TGI: > 100 µM

COMPOUND: N#Cc1cc([N+](=O)[O-])ccc1NC(=O)C(=O)C(C(=O)/C=C/c1ccccc1)C1OC(=O)c2ccccc21 (stereo unspecified)
TGI: > 100 µM

COMPOUND: COc1ccc2c(c1)CC[C@@H]1[C@@H]2CC[C@]2(C)C(c3ccco3)=C(C=O)C[C@@H]12
TGI: 16.3 µM

COMPOUND: CN(C)CCCc1c[nH]c2ccccc12
TGI: > 100 µM

COMPOUND: CC(C)NCC(O)c1ccc(OCc2ccccc2)c(OCc2ccccc2)c1-c1ccccc1 (stereo unspecified)
TGI: 2.72 µM

COMPOUND: Oc1c(C2=N[C@H]3CCCC[C@@H]3N2)ccc2ccccc12
TGI: > 100 µM

Recorded values, source PubChem BioAssay (NCI).
